Data provenance is patent US20240287161A1.

# Experimental Target: Authentic CoV2 (SARS-CoV-2 JPN/TY/WK-521)
# Procedure Summary: cell-based or functional assay
Metric Name: IC50, authentic virus neutralization [NT-108] (µg/mL)
The reply should be a number in µg/mL, with the unit left off.

Asked: Item NT-108, human IgG2 subclass (antibody, V domains shown) VH: EVQLQQSGPGLVKPSQTLSLTCSISGDSVSSNSAAWNWIRQSPSRGLEWLGRTYYRSKWYNDYAGTVKSRIAINPDTSKNQFSLHLNSVTPEDTAVYFCARVISVAGYAFDIWGQGTMVTVSS VL: EIVLTQSPGTLSLSPGERATLSCRASQSVSSTFLAWYQQKPGQAPRLLIYGASYMATGIPDRFSGSGSGTDFTLTISRLEPEDFAVYYCQQYGSSLTFGGGTKLEIK has what recorded IC50, authentic virus neutralization [NT-108]?
Given back: 0.101
